- target.entity: Cytochrome P450 2C9 (Homo sapiens) (UniProt P11712)
- Sequence (P11712 whole entry, looked up): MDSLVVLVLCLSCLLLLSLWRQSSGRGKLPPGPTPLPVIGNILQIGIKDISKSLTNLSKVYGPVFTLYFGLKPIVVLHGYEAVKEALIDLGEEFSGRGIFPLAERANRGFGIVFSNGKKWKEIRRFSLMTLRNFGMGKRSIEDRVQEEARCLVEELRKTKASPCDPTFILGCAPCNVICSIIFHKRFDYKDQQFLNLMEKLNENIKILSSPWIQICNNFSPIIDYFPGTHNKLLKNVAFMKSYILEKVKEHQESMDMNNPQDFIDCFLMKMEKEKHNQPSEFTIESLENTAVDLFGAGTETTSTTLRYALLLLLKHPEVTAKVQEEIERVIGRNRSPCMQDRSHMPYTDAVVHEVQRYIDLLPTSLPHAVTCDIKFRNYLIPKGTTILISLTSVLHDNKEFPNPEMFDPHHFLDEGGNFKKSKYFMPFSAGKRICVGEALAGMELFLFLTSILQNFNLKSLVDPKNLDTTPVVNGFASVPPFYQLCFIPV
- assay.comment: qHTS Assay for Inhibitors and Substrates of Cytochrome P450 2C9 (AID 883); further: potency means the concentration at half of the fitted maximal effect; nearly all actives have a fitted effect of over 60% in size
- measurement.setup: recombinant CYP2C9, luciferin-H luminescence, 60 min; series mostly up to 57.1 µM
Results filed as inconclusive are left out. The source made the active and inactive calls. The call rests on the fitted dose curve; in most records, active means well fitted inhibition curve with a large enough effect; inconclusive means small, poorly fitted or top-dose-only effect; inactive means no such curve, though single readings can be large or run the other way.
Log the outcome using a class from T for active, F for inactive

Could you kindly confirm the outcome this assay logged for CCCCCCCCCCCC1=C(O)C(=O)C=C(O)C1=O ?
T

Also, CC(C)OC(=O)C(C)(C)Oc1ccc(C(=O)c2ccc(Cl)cc2)cc1 please.
T

###

Parameter Potency: see the listing below.
- assay.comment: qHTS of pediatric cancer cell lines to identify multiple opportunities for drug repurposing: Confirmatory screen for BT-12 cells (AID 1347112);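 further: potency means the concentration at half of the fitted maximal effect; viability read after 48 h of compound exposure; nearly all actives have a fitted effect of over 55% in size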
- measurement.setup: BT-12 rhabdoid tumor cells, viability; series mostly up to 45.9 µM
Results filed as inconclusive are left out. Calls of active or inactive are those of the source. Calls come from the whole dose curve; as a rule, active = well fitted cell-killing curve with a large enough effect; inconclusive = small, poorly fitted or top-dose-only effect; inactive = flat fitted curve, though single readings scatter.

Would you please look over these solved cases?
Could you tell me which Potency is on file for CCc1ccc(OCc2ccccc2C(=O)Nc2ccc3nc(C)cc(N)c3c2)cc1 ?
9.27 µM (active)

Here is the next compound: COc1ccc(-c2nc(N3CCOCC3)c3sc(CN(C)c4ncc(C(=O)NO)cn4)cc3n2)cn1
1.85 µM (active)

Now, please, on to the next compound.
Query (compound): Oc1ccc(C2CCN(c3ccnc4ccccc34)CC2)cc1O ; field requested: Potency
13.1 µM (active)

###

- assay.comment: qHTS of pediatric cancer cell lines to identify multiple opportunities for drug repurposing: Primary screen for DAOY cells (AID 1347090); further: nearly all actives have a fitted effect of over 55% in size; further: potency means the concentration at half of the fitted maximal effect
- measurement.setup: DAOY medulloblastoma viability, CellTiter-Glo luminescence, 48 h; series mostly up to 46 µM
Records with an inconclusive call do not appear. Active and inactive are the calls of the source. Calls come from the whole dose curve; as a rule, active = well fitted cell-killing curve with a large enough effect; inconclusive = small, poorly fitted or top-dose-only effect; inactive = flat fitted curve, though single readings scatter.
assay.endpoint: Potency

In the examples that follow, each entry is paired with its recorded Potency.
# query: Potency of entry O=C1c2ccccc2-[n+]2ccc3c([nH]c4ccccc43)c21
2.96 µM (active)

What about this molecule? O=C(Nc1ccccc1-c1cn2c(CN3CCNCC3)csc2n1)c1cnc2ccccc2n1
23.5 µM (active)

Try the molecule CC[C@H]1OC(=O)[C@H](C)C(=O)[C@H](C)[C@@H](O[C@H]2O[C@H](C)C[C@H](N(C)C)[C@@H]2O)[C@](C)(OC)C[C@@H](C)C(=O)[C@H](C)[C@H]2N(CCCCn3cnc(-c4cccnc4)c3)C(=O)O[C@]12C
inactive

O=c1cc(N2CCOCC2)oc2c(-c3cccc4c3sc3ccccc34)cccc12 , same question.
18.7 µM (active)

Next record, please: CN1C[C@H]2c3ccccc3Oc3ccc(Cl)cc3[C@@H]2C1
inactive

Now the same for C[N+](C)(C)CCCCCC[N+](C)(C)C
inactive

Param item: CCCCCCCCCCCC1=C(O)C(=O)C=C(O)C1=O
0.935 µM (active)

Below: the item to evaluate.
Fill in the blank: the reported Potency of CO[C@H]1C=CC=C(C)C(=O)NC2=CC(=O)C(NCCN(C)C)=C(C[C@@H](C)C[C@H](OC)[C@@H](O)[C@@H](C)C=C(C)[C@@H]1OC(N)=O)C2=O is ____.
3.72 µM (active)

###

- assay.comment: Quantitative High-Throughput drug screen in 47 multiple myeloma cell lines against the NCATS MIPE library collection: FR4_PLB cell viability assay (AID 1918924; further: nearly all actives have a fitted effect of over 35% in size)
- measurement.setup: FR4_PLB myeloma cells viability, CellTiter-Glo ATP, 48 h; series mostly up to 45.8 µM
Results filed as inconclusive are left out. Calls of active or inactive are those of the source. Calls follow the shape of the dose curve; as a rule, active = well fitted cell-killing curve with a large enough effect; inconclusive = small, poorly fitted or top-dose-only effect, or effect the other way; inactive = no such curve, though single readings can be large or run the other way.
The reply should be one of these categories: active, inactive

Lab log entry: COC[C@@H](c1ccc(C(F)(F)F)cc1)N1CCN(C2(C)CCN(C(=O)c3c(C)ncnc3C)CC2)C[C@H]1C — outcome as called in the assay?
inactive

CO[C@@H](C(=O)N1Cc2[nH]nc(NC(=O)c3ccc(N4CCN(C)CC4)cc3)c2C1)c1ccccc1 , same question.
active

Also Oc1ccc(C2=Cc3ccc(O)cc3OC2)cc1 , if possible.
active

Cc1ccc(F)c(NC(=O)Nc2ccc(-c3cccc4[nH]nc(N)c34)cc2)c1 ?
active

Another molecule to check: NC(=O)c1ccc2nc(-c3ccc(Oc4ccc(Cl)cc4)cc3)[nH]c2c1
active

More entries:
State the result this test recorded for COc1ccc2cccc(CCNC(C)=O)c2c1 .
inactive

Lookup O=C(Nc1ccccc1Br)N[C@@H]1CCN(c2ccc(C(F)(F)F)cn2)C1
inactive

And what about the molecule CN1[C@@H]2CCC[C@@H]1CC(NC(=O)c1nn(C)c3ccccc13)C2 (stereo partly specified) ?
inactive

And the next one, C[N+]1(C)[C@@H]2CC(OC(=O)[C@H](CO)c3ccccc3)C[C@H]1[C@H]1O[C@@H]12 (stereo partly specified) ?
inactive

Note, next up: CC(C)C(C)C=CC(C)C1CCC2C3=CC=C4CC(O)CCC4(C)C3CCC21C (stereo unspecified)
inactive

Same read-out for O=C(Nc1c(Cl)cncc1Cl)c1ccc(OC(F)F)c(OCC2CC2)c1 ?
inactive

Entry to check: CC1(C)Cc2c(sc(NC(=S)NC(=O)c3ccccc3)c2C(=O)O)CO1
inactive

Record: CC[C@@]1(O)C[C@H](O[C@H]2C[C@H](N(C)C)[C@H](O[C@H]3C[C@H](O)[C@H](O[C@H]4CCC(=O)[C@H](C)O4)[C@H](C)O3)[C@H](C)O2)c2c(cc3c(c2O)C(=O)c2c(O)cccc2C3=O)[C@@H]1C(=O)OC
active
